meta.source: patent US6624196B2

Consider the following pIC50 values measured on MMP-13CD (collagenase-3 catalytic domain) (Homo sapiens).
Hey, just a heads up that pIC50 is the negative log base 10 of the concentration in molar.

COc1ccc(C(=O)Nc2ccc(C(=O)CCC(=O)O)cc2)cc1 [Example 27] :: 5.01

Query pIC50 on MMP-13CD (collagenase-3 catalytic domain) (Homo sapiens) for O=C(O)CCC(=O)c1ccc(NC(=O)c2ccc(Cl)cc2)cc1 [Example 26] 4.62

Query pIC50 on MMP-13CD (collagenase-3 catalytic domain) (Homo sapiens) for Cc1ccc(C(=O)Nc2ccc(C(=O)CCC(=O)O)cc2)cc1 [Example 1] 5.24

Query pIC50 on MMP-13CD (collagenase-3 catalytic domain) (Homo sapiens) for O=C(O)CCC(=O)c1ccc(NC(=O)c2cccs2)cc1 [Example 31] 4.72

---

# Test system: MMP-2CD (gelatinase A catalytic domain) (Homo sapiens, UniProt P08253, DEL220-393)
# Construct: Experiments were carried out with the catalytic domains of the proteinases
# Sequence (P08253 with tags, fused parts or gaps DEL220-393): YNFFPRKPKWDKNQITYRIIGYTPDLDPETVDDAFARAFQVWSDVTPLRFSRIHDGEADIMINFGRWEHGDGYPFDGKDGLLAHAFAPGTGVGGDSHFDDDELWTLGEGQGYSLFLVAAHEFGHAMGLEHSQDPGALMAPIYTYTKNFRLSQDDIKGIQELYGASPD
# Test details: Thiopeptolide substrate assay, gelatinase A catalytic domain
# Format: biochemical
# Cond: 10 μM concentration of inhibitor (footnote a, Examples 8 through 25); read-out: % inhibition of the enzyme MMP-2CD
A collection of molecules and their measured inhibition at 10 µM
Give the quantity in %, number only.

Below, 8 molecules whose answers are already recorded.
O=C(O)CCC(=O)c1ccc(NC(=O)c2cccc([N+](=O)[O-])c2)cc1 :: 78
COc1ccccc1C(=O)Nc1ccc(C(=O)CCC(=O)O)cc1 :: 18
CCCC(=O)Nc1ccc(C(=O)CCC(=O)O)cc1 :: 62
CCCCCCC(=O)Nc1ccc(C(=O)CCC(=O)O)cc1 :: 83
COc1cc(OC)cc(C(=O)Nc2ccc(C(=O)CCC(=O)O)cc2)c1 :: 15
COc1cccc(C(=O)Nc2ccc(C(=O)CCC(=O)O)cc2)c1 :: 75
CCCCCCCCC(=O)Nc1ccc(C(=O)CCC(=O)O)cc1 :: 85
CCc1ccc(C(=O)Nc2ccc(C(=O)CCC(=O)O)cc2)cc1 :: 97

Bench note: what inhibition at 10 µM did CCCCOc1ccc(C(=O)Nc2ccc(C(=O)CCC(=O)O)cc2)cc1 show? 97

---

A collection of compounds and their measured melting point

Below, 3 compounds whose answers are already recorded.
CCCCC(=O)Nc1ccc(C(=O)CCC(=O)O)cc1 [Example 3] :: 153 to 155 °C
O=C(O)CCC(=O)c1ccc(NC(=O)c2cccc(F)c2)cc1 [Example 4] :: 239 to 241 °C
O=C(O)CCC(=O)c1ccc(NC(=O)c2ccc(F)cc2)cc1 [Example 6] :: 253 to 255 °C

Bench note: what melting point did O=C(O)CCC(=O)c1ccc(NC(=O)C2CCCCC2)cc1 [Example 7] show? 195 to 198 °C

Bench note: what melting point did O=C(O)CCC(=O)c1ccc(NC(=O)c2ccccc2F)cc1 [Example 5] show? 191 to 193 °C

---

A collection of compounds and their measured inhibition at 10 µM
# Test system: MMP-3CD (stromelysin-1 catalytic domain) (Homo sapiens)
# Construct: Experiments were carried out with the catalytic domains of the proteinases; made in house; host or cells: Escherichia coli
# Sequence (P08254 100-272 limits assumed): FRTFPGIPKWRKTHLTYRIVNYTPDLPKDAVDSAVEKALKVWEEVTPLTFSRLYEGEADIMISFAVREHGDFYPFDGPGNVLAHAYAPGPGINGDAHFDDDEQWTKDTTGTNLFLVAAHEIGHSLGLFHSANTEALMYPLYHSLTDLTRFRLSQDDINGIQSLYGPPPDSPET
# Test details: Thiopeptolide substrate assay, stromelysin-1 catalytic domain
# Type: biochemical
# Cond: 10 μM concentration of inhibitor (footnote a, Examples 8 through 25); read-out: % inhibition of the enzyme MMP-3CD

Below, 4 compounds whose answers are already recorded.
CCc1ccc(C(=O)Nc2ccc(C(=O)CCC(=O)O)cc2)cc1 :: 85%
O=C(O)CCC(=O)c1ccc(NC(=O)c2ccc(Br)cc2)cc1 :: 81%
CCCC(=O)Nc1ccc(C(=O)CCC(=O)O)cc1 :: 35%
COc1cc(OC)cc(C(=O)Nc2ccc(C(=O)CCC(=O)O)cc2)c1 :: 4%

Let's switch to this compound now.
Bench note: what inhibition at 10 µM did O=C(O)CCC(=O)c1ccc(NC(=O)c2cccnc2)cc1 show? 3%
